For each record, write down the corresponding Kd.
# tested-target: human insulin receptor (HIR) (human, UniProt P06213)
# experimental-details: competition

Would you mind telling me what Kd value was observed for S246 (listing feature) chain 1: ACAWPTYWNCGGGGX chain 2: FHENFYDWFVRQVSKKX ?
5 µM

Would you mind telling me what Kd value was observed for HDPFYSMMKSLLK [S120] ?
2 µM

Would you mind telling me what Kd value was observed for CGFHENFYDWFVRQVSKK [S171] ?
2.9 µM

Would you mind telling me what Kd value was observed for S255 (listing feature) chain 1: SDGFYNAIELLSGGGX chain 2: SDGFYNAIELLSGGGX ?
1.6 µM

Reference source for all entries: patent US7173005
